tested on: NCI/ADR-RES ovarian; experiment: NCI tumour cell line growth inhibition, 48 h
Please enter criterion met where TGI is greater than or equal to 9 µM, and criterion not met where it is lower.

- COC(=O)C(/C(=N/NC(=O)c1ccncc1)C(=O)Nc1ccccc1OC)c1nc2ccc(Cl)cc2[nH]c1=O (configuration not stated): criterion met
- OCC1OC(n2cnc3cccnc32)CC1O (configuration not stated): criterion met
- CN(C(=O)C1(C(=O)C=[N+]=[N-])CC1)c1ccccc1: criterion met
- COc1ccc(N2CCN(C(=O)c3ccccc3Nc3ccnc(C(F)(F)F)c3)CC2)cc1: criterion met
- NC(Cc1cc(I)c(O)c(I)c1)C(=O)O (configuration not stated): criterion met

Exercise: Identify whether the reported TGI of the following compound is 9 µM or greater: O=P(Oc1ccc(Cl)cc1)(Oc1ccc(Cl)cc1)N1CC1
Solution: criterion met

Exercise: Could you verify whether the entry COP(=O)(OC)C(N)CCSC (configuration not stated) shows TGI of no less than 9 µM?
Solution: criterion met

Exercise: Say whether COc1ccc(/C(C)=C(\c2ccc(Cl)cc2)c2ccc(OCCN3CCCC3)cc2)cc1 shows TGI of 9 µM or more.
Solution: criterion met

###

tested on: 786-0 renal; assay: NCI tumour cell line growth inhibition, 48 h
Reported property: TGI (µM)
API: value field is a number in µM; no unit string.

- CCN1CCN(c2nc(NNC(=O)Cc3ccccc3)nc(N3CCN(C(c4ccccc4)c4ccccc4)CC3)n2)CC1: 3.14

Exercise: In one line, give reported TGI of the entry CC(=O)OCC1OC(OC2C(COC(C)=O)OC(OCCC[S-])C(OC(C)=O)C2OC(C)=O)C(OC(C)=O)C(OC(C)=O)C1OC(C)=O.[Au+].c1ccc(CN2[CH-]N(Cc3ccccc3)C(c3ccccc3)=C2c2ccccc2)cc1 (centres undefined) .
Solution: 8.56

###

tested on: NCI-H226 lung; experiment: NCI tumour cell line growth inhibition, 48 h; in the data active = GI50 below about 0.43 µM; inactive = the rest
Use one of these outcomes when replying: T for active, F for inactive

Past entries and their recorded results:
* COc1ccc(C(=O)c2cc(OC)c(OC)c(OC)c2)cc1OC(C)=O | F
* C=CN1C(=O)OC(c2ccccc2)C1c1ccccc1 (stereo not given) | F
* CCN1CCN(c2nc(NNC(=O)Cc3ccccc3)nc(N3CCN(C(c4ccccc4)c4ccccc4)CC3)n2)CC1 | F
* C/C1=C\[C@H](C)C[C@H](C)OC(=O)C[C@H](c2ccc(O)cc2)NC(=O)[C@@H](Cc2c(Br)[nH]c3ccccc23)N(C)C(=O)[C@H](C)NC(=O)[C@@H](C)C1 | T

Proceed to the following item.
Exercise: Field: outcome | Entry: Cc1ccc(Cl)cc1Nc1nc(C(F)(F)F)ccc1C(=O)Nc1cccc(C(F)(F)F)c1
Solution: F

###

tested on: HCT-15 colon; assay: NCI tumour cell line growth inhibition, 48 h; in the data active means GI50 below about 0.43 µM; inactive means the rest
Bench note: report the call from active, inactive

Please review the entries below; each comes with its answer.
• O=C1NC(=O)/C(=C/C=C/c2ccccc2)S1 = inactive
• Nc1ccc(-c2nc3ccc4[nH]ncc4c3c3c2CCCC3)cc1F = inactive
• CC(CN=C(CC(=O)c1ccc(Br)cc1)c1ccccc1)N=C(CC(=O)c1ccc(Br)cc1)c1ccccc1 (stereo not given) = inactive
• CC[C@@]1(O)C(=O)NCc2c1cc1n(c2=O)Cc2cc3ccccc3nc2-1 = inactive
• COc1ccc(-c2ccc(/C=C/C(=O)NO)cc2)cc1 = inactive

Exercise: Which result was noted for this compound in the test: COC(=O)C[CH](C(=O)OC)[Ge]([CH3])([CH3])[S]c1ccccc1 (stereo not given)
Solution: inactive

Exercise: So what was the verdict on COc1ccc2c(c1)CCC1C2CC[C@@]2(C)C1CC[C@@]2(O)CNC(=O)/C=C/c1ccc(O)c(OC)c1 (stereo not given in full) in this test?
Solution: inactive

Exercise: Test call for this compound, please: COc1ccc(/C(C)=C(\c2ccc(Cl)cc2)c2ccc(OCCN3CCCC3)cc2)cc1
Solution: inactive

Exercise: In this assay, the call recorded for N#Cc1c(NC(=O)c2ccccc2)sc2c1CCC(=O)C2 was what?
Solution: active

Exercise: What call does the record list for COc1ccc(N2CCN(C(=O)c3ccccc3Nc3ccnc(C(F)(F)F)c3)CC2)cc1 ?
Solution: inactive
